Source: PubChem BioAssay AID1963446

# reported viability, T/C; entries follow
Tested on: 993429-296-R-J1-PDC complex spheroid growth, percent test/control
assay-remarks: Anticancer human tumor 993429-296-R-J1-PDC patient-derived uterine sarcoma cell line growth inhibition [Asc]
condition-info: second compound 0.949 µM; first compound 0.316 µM; stronger effect = lower value
Could you give me the number in %? Just the number is fine.

C=CC(=O)N1CCN(c2nc(=O)n(-c3c(C)ccnc3C(C)C)c3nc(-c4c(O)cccc4F)c(F)cc23)C(C)C1 (configuration not stated) + CCN1C(C(=O)NC23CCC(C(=O)O)(CC2)CC3)C(c2cccc(Cl)c2F)C2(C(=O)Nc3cc(Cl)ccc32)C12CCCCC2 : 128

// sample C=C(F)C(=O)N1CCN(c2nc(OCC3CCCN3C)nc3c2CCN(c2cccc4cccc(Cl)c24)C3)CC1CC#N (configuration not stated) + CCN1C(C(=O)NC23CCC(C(=O)O)(CC2)CC3)C(c2cccc(Cl)c2F)C2(C(=O)Nc3cc(Cl)ccc32)C12CCCCC2 , its viability, T/C was 78.2

###

Test system: 993429-296-R-J1-PDC complex spheroid growth, percent test/control
assay-remarks: Anticancer human tumor 993429-296-R-J1-PDC cell line growth inhibition [Asc]; active means viability on the fitted dose curve at most 10% of control; inactive means the rest;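 also: spheroids exposed to compounds for seven days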
condition-info: second compound 3 µM; first compound 0.1 µM
# output must be one of TRUE (active), FALSE (inactive)

Solved entries (count: 5):
O=C(c1ccc(F)c(F)c1Nc1ccc(I)cc1F)N1CC(O)([C@@H]2CCCCN2)C1 + CCN1C(C(=O)NC23CCC(C(=O)O)(CC2)CC3)C(c2cccc(Cl)c2F)C2(C(=O)Nc3cc(Cl)ccc32)C12CCCCC2 : FALSE
CNC(C)C(=O)NC1CN(S(=O)(=O)c2cccc(S(=O)(=O)N3CCC4CCC(C(=O)NC(c5ccccc5)c5ccccc5)N4C(=O)C(NC(=O)C(C)NC)C3)c2)CCC2CCC(C(=O)NC(c3ccccc3)c3ccccc3)N2C1=O (stereo not given) + CCN1C(C(=O)NC23CCC(C(=O)O)(CC2)CC3)C(c2cccc(Cl)c2F)C2(C(=O)Nc3cc(Cl)ccc32)C12CCCCC2 : FALSE
C#Cc1c(F)ccc2cc(O)cc(-c3ncc4c(N5CC6CCC(C5)N6)nc(OCC56CCCN5CC(F)C6)nc4c3F)c12 (stereo not given) + CCN1C(C(=O)NC23CCC(C(=O)O)(CC2)CC3)C(c2cccc(Cl)c2F)C2(C(=O)Nc3cc(Cl)ccc32)C12CCCCC2 : FALSE
Cn1ncnc1[C@H]1c2n[nH]c(=O)c3cc(F)cc(c23)N[C@@H]1c1ccc(F)cc1 + CCN1C(C(=O)NC23CCC(C(=O)O)(CC2)CC3)C(c2cccc(Cl)c2F)C2(C(=O)Nc3cc(Cl)ccc32)C12CCCCC2 : FALSE
NC1CCC(NC2CC2c2ccccc2)CC1 (stereo not given) + CCN1C(C(=O)NC23CCC(C(=O)O)(CC2)CC3)C(c2cccc(Cl)c2F)C2(C(=O)Nc3cc(Cl)ccc32)C12CCCCC2 : FALSE

Inquiry: I'd appreciate the recorded outcome for C=C(F)C(=O)N1CCN(c2nc(OCC3CCCN3C)nc3c2CCN(c2cccc4cccc(Cl)c24)C3)CC1CC#N (stereo not given) + CCN1C(C(=O)NC23CCC(C(=O)O)(CC2)CC3)C(c2cccc(Cl)c2F)C2(C(=O)Nc3cc(Cl)ccc32)C12CCCCC2 from this test.
Reply text: FALSE

Inquiry: I'd appreciate the recorded outcome for COc1c(OCCCN2CCOCC2)ccc2c3n(c(=NC(=O)c4cnc(N)nc4)nc12)CCN3 + CCN1C(C(=O)NC23CCC(C(=O)O)(CC2)CC3)C(c2cccc(Cl)c2F)C2(C(=O)Nc3cc(Cl)ccc32)C12CCCCC2 from this test.
Reply text: TRUE
